target: Farnesyl pyrophosphate synthase (Homo sapiens, UniProt P14324); experiment: Inhibition of N-terminal His-tagged human recombinant FPPS expressed in Escherichia coli BL21 (DE3) using GPP and [3H]-IPP as substrate preincubated for 10 mins before substrate addition measured after 8 mins by liquid scintillation counting
Sequence (P14324 whole entry): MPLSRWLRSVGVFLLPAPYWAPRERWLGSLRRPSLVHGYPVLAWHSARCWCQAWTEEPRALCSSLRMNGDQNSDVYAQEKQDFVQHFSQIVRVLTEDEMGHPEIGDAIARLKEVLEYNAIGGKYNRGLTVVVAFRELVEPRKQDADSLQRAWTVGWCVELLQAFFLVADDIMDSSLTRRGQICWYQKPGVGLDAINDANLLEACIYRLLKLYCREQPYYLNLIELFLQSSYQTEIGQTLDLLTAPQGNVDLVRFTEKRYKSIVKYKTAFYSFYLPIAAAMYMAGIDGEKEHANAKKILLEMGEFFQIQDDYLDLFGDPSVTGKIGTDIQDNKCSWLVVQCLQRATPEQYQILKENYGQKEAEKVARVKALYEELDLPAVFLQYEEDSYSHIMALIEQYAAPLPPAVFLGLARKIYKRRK
recorded endpoint: IC50 (µM)

> print(dat)
                                    compound  bound.operator  numeric.readout
 1  Cc1ccc(-c2cc3c(NC(Cc4ccccc4)P(=O)(O)O)ncnc3s2)cc1Cl (stereo unspecified)               =              2.3
 2  Cc1ccc(-c2cc3c(NC(c4ccc5c(c4)CCO5)P(=O)(O)O)ncnc3s2)cc1 (stereo unspecified)               =                3
 3  COc1ccc(F)cc1-c1cc2c(NC(Cc3cccc(F)c3)P(=O)(O)O)ncnc2s1 (stereo unspecified)               =                1
 4       Cc1ccc(-c2sc3ncncc3c2CP(=O)(O)O)cc1               ≥              100
 5  Cc1ccc(-c2cc3c(NC(CC4CCCCC4)P(=O)(O)O)ncnc3s2)cc1 (stereo unspecified)               =              1.6
 6  Cc1ccc(-c2sc3ncnc4c3c2COP(=O)(O)CCC4)cc1               ≥              100
 7  Cc1ccc(-c2cc3c(NC(CC4CCC4)P(=O)(O)O)ncnc3s2)cc1 (stereo unspecified)               =              2.8
 8  Cc1ccc(-c2cc3c(NC(c4ccccc4)P(=O)(O)O)ncnc3s2)cc1 (stereo unspecified)               =              4.8
 9  Cc1ccc(-c2cc3c(N[C@H](Cc4ccccc4)P(=O)(O)O)ncnc3s2)cc1               =                1
10  Cc1ccc(-c2cc3c(N[C@@H](Cc4ccccc4)C(=O)NP(=O)(O)O)ncnc3s2)cc1               =              3.7
11  COc1cc(C)c(Cl)cc1-c1cc2c(NCP(=O)(O)O)ncnc2s1               =              8.8
12  Cc1ccc(-c2cc3c(NC(c4ccccc4)P(=O)(O)O)ncnc3s2)cc1Cl (stereo unspecified)               =              1.6
13  COc1cc(C)c(F)cc1-c1cc2c(NC(Cc3cccc(F)c3)P(=O)(O)O)ncnc2s1 (stereo unspecified)               =             0.87
14  COc1cc(C)c(F)cc1-c1cc2c(NC(Cc3ccccc3)P(=O)(O)O)ncnc2s1 (stereo unspecified)               =              1.6
15   Cc1ccc(-c2sc3ncnc(NCP(=O)(O)O)c3c2C)cc1               =               10
16    Cc1ccc(-c2cc3c(NCP(=O)(O)O)ncnc3s2)cc1               =                5
17  COc1cc(C)c(Cl)cc1-c1cc2c(NC(Cc3ccccc3)P(=O)(O)O)ncnc2s1 (stereo unspecified)               =              4.6
18  Cc1ccc(-c2cc3c(NC(Cc4cccc(F)c4)P(=O)(O)O)ncnc3s2)cc1F (stereo unspecified)               =              1.5
19  Cc1ccc(-c2sc3ncnc(NC(Cc4ccccc4)P(=O)(O)O)c3c2C)cc1 (stereo unspecified)               =              2.6
20  Cc1ccc(-c2cc3c(NC(Cc4ccccc4)P(=O)(O)O)ncnc3s2)cc1 (stereo unspecified)               =              1.4
21  Cc1ccc(-c2cc3c(NC(Cc4cccc(F)c4)P(=O)(O)O)ncnc3s2)cc1Cl (stereo unspecified)               =             0.86
